Values compiled from paper PMC4336329.

Molecular target: human ether-à-go-go-related gene (hERG) potassium channel (human, UniProt Q12809);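 further: peak tail current of the secondary pulse compared with the same well before compound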
Sequence (Q12809 whole entry, looked up): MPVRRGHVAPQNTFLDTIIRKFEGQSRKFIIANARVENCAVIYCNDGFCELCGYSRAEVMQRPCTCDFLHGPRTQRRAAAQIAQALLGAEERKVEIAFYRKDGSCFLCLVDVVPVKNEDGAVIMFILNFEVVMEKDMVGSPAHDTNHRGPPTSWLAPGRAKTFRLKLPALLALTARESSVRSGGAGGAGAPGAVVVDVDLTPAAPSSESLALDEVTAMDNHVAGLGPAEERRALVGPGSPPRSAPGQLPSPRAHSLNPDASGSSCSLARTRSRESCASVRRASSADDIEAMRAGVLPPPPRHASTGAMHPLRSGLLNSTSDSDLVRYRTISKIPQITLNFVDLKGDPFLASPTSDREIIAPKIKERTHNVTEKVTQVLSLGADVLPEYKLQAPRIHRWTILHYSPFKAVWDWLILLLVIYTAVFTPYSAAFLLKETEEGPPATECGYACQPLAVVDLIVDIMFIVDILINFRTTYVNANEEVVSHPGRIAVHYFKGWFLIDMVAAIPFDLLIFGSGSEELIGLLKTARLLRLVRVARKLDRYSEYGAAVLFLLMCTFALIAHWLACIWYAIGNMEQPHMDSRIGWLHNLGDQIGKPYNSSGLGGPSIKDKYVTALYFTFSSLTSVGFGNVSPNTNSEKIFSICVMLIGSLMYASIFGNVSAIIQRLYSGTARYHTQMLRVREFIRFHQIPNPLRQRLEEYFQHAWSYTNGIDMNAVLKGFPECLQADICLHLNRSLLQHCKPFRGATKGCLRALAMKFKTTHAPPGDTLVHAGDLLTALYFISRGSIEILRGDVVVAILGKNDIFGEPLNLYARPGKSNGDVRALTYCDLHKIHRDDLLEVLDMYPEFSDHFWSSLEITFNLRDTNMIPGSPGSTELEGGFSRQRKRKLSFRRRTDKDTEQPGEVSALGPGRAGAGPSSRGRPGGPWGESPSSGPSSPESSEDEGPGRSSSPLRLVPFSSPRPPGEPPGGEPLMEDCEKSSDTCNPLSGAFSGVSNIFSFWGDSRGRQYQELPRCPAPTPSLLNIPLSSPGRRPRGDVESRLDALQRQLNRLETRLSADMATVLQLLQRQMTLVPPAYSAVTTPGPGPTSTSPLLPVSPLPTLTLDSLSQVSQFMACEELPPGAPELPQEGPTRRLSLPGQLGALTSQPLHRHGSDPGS
Assay: primary screen, population patch clamp on CHO cells stably expressing hERG; higher = less effect of the substance
About 14,000 (4.5%) of roughly 310,000 compounds showed an effect of 50% or more. The effect is printed as a negative number. For the sample, strong results were picked, then their nearest neighbours and some compounds at random.
Mark not met for hERG current change (%, negative = inhibition) at 10uM values under -10%, and met for everything at or above.

INSERT INTO measurements (molecule, group_label) VALUES
  ('Nc1cc(-c2ccc(Cl)cc2)nn1S(=O)(=O)c1ccc(Cl)cc1', 'met'),
  ('Cc1ccc(CS(=O)Cc2ccc(C(=O)N3CCOCC3)o2)cc1 (centres unmarked)', 'not met');

Quick check, hERG current change (%, negative = inhibition) at 10uM >= -10%? O=C(c1ccc(CS(=O)Cc2ccc(Cl)cc2)o1)N1CCN(c2ccccn2)CC1 (centres unmarked)
not met

Is the recorded value of hERG current change (%, negative = inhibition) at 10uM equal to or greater than -10% for this molecule? Cc1ccc(CS(=O)Cc2ccc(C(=O)N3CCN(c4ccccc4)CC3)o2)cc1 (centres unmarked)
not met

---

Target: human ether-à-go-go-related gene (hERG) potassium channel (human);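 further: peak tail current of the secondary pulse compared with the same well before compound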
Assay: primary screen, population patch clamp on CHO cells stably expressing hERG; higher = less effect of the substance
Hit rate of the full screen: of about 310,000 compounds, about 14,000 (4.5%) showed an effect of 50% or more. The effect is printed as a negative number. The full list was thinned out, with strong results kept by preference.
Property Name: hERG current change (%, negative = inhibition) at 10uM

Worked examples, 3 compounds total:
INSERT INTO measurements (compound, test_result) VALUES
  ('Cn1ccnc1SCC(=O)c1cccc(C(F)(F)F)c1', '-27.8%'),
  ('COc1ccc(OCCn2cncn2)cc1', '12.6%'),
  ('Fc1ccc2c(c1)C(c1ccc(N3CCOCC3)cc1)=NNC(c1cccs1)=N2', '-1.96%');

Continue with the next compound.
hERG current change (%, negative = inhibition) at 10uM lookup needed for `O=C(CN1C(=O)NC2(CCCCCC2)C1=O)NCCc1ccccc1` , thanks.
1.14%

---

Target: human ether-à-go-go-related gene (hERG) potassium channel (human, UniProt Q12809);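 further: peak tail current of the secondary pulse compared with the same well before compound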
Experiment: primary screen, population patch clamp on CHO cells stably expressing hERG; higher = less effect of the substance
Out of some 310,000 compounds screened, about 14,000 (4.5%) showed an effect of 50% or more. Effects have a minus sign here. The full list was thinned out, with strong results kept by preference.
Property Name: hERG current change (%, negative = inhibition) at 10uM
Value and unit, in that order.

Use the examples below as a reference point.
INSERT INTO results (compound, test_result) VALUES
  ('CC(C)CN1CCC(=O)N([C@H](COc2ccccc2)Cc2ccccc2)CC1', '-71.7%'),
  ('O=C1CCN(Cc2ccccc2)CCN1[C@H](CO)Cc1ccccc1', '14.5%'),
  ('CN1CCC(=O)N([C@H](COc2ccccc2)Cc2ccccc2)CC1', '-28.5%'),
  ('O=C(c1cc(Cl)cc(Cl)c1)N1CCC(=O)N(C(COCc2ccccc2)Cc2ccccc2)CC1 (centres unmarked)', '-10%');

Any idea what hERG current change (%, negative = inhibition) at 10uM was measured for `O=C(O)CSc1cc(C(=O)c2ccccc2O)cn2c(=O)c3c(-c4ccccc4)csc3nc12` ?
-1.71%
